- Test system: P. falciparum female gametocytes
- ASSAY_COMMENT: P. falciparum Dual Gamete Formation Assay (PfDGFA), female readout (Pfs25-positive female gametes)
- Format: cell-based, Plasmodium falciparum NF54
- SETTINGS: PfDGFA at 2µM, 24h preincubation with gametocytes; replicate R1
Entries and their measured % inhibition female (individual replicates) R1 follow.
Give just the numeric value; % need not be written.

Request: Item under review: "COc1cc2nc(NCCCN3CCCCC3)nc(NCc3ccccc3)c2cc1OC" . Reported % inhibition female (individual replicates) R1?
Response: 53.1

Request: Item under review: "Fc1ccc2[nH]c(-c3cccc(-c4cccc(CNCCN5CCNCC5)c4)c3)nc2c1.O=C(O)C(F)(F)F" . Reported % inhibition female (individual replicates) R1?
Response: 8.6

Request: Item under review: CCN(CC)CCOc1ccc(C(O)(C#CC(O)(c2ccc(C)cc2)c2ccc(OCCN(CC)CC)cc2)c2ccc(C)cc2)cc1 (stereo not shown) . Reported % inhibition female (individual replicates) R1?
Response: 31.1

Request: Item under review: COc1ccc(CCNC(C)Cc2ccc(C(=O)Nc3ccc(CC(C)NCCc4cccc(Cl)c4)cc3)cc2)cc1 (stereo not shown) . Reported % inhibition female (individual replicates) R1?
Response: 25.4

Request: Item under review: "CCCCOc1c(CNCCCCCCNCc2ccc3ccccc3c2OCCCC)ccc2ccccc12.CS(=O)(=O)O" . Reported % inhibition female (individual replicates) R1?
Response: 52.1

Request: Item under review: "CN(C)CCNCc1ccc(-c2ccc3c(Nc4ccc(Oc5ccccc5)cc4)ccnc3c2)o1" . Reported % inhibition female (individual replicates) R1?
Response: 29.8

Request: Item under review: "CNCCNCc1ccc(-c2ccc(-c3nc4cccc(C)c4[nH]3)cc2)cc1.O=C(O)C(F)(F)F" . Reported % inhibition female (individual replicates) R1?
Response: 20.0

Entry source: paper PMC10584170
